- Test system: phenylquinone-induced writhing in mice
- RUN DESCRIPTION: Phenylquinone Writhing Test
- Type: in vivo, female white mice
- TEST CONDITIONS: Mus musculus, 0.5 h, oral, at 1/2 hour
TEST READOUT: ED50

Examples with answers:
INSERT INTO measurements (chemical_string, test_readout, recorded_result) VALUES
  ('FC(F)C(F)(F)Sc1nc(-c2cccs2)c(-c2cccs2)[nH]1', 'ED50', '4.6 mg/kg'),
  ('O=S(=O)(c1nc(-c2cccs2)c(-c2cccs2)[nH]1)C(F)(F)C(F)F', 'ED50', '< 130 mg/kg'),
  ('COc1ccc(-c2nc(S(=O)(=O)C(F)(F)C(F)F)[nH]c2-c2cccs2)cc1', 'ED50', '1.67 mg/kg'),
  ('O=S(=O)(c1nc(-c2ccc(F)cc2)c(-c2cccs2)[nH]1)C(F)(F)C(F)F', 'ED50', '2.1 mg/kg');

Now examine the next entry.
Per the records, this compound ( COc1ccc(-c2nc(SC(F)(F)C(F)F)[nH]c2-c2cccs2)cc1 ) has ED50 equal to 45 mg/kg
